- Tested on: 8E51 Cells permanently infected with LAV (Lymphotropic Adenopathy Virus) and MOLT3 cells
- assay-name: Antiviral activity: syncytia formation inhibition (8E51 cells infected with LAV co-incubated with MOLT3 cells)
- Format: cell-based
- experimental-context: Homo sapiens, MOLT-3; 50 μM
Please use Satisfied whenever inhibition at 50 µM is not below 30%, and Not satisfied whenever it is.

>>> class_label("CCN(CC)CCCCCCOC(=O)OCCCCCCN(CC)CC [13, E]]")
"Not satisfied"
>>> class_label("CCCCN1CCC(COC(=O)OCC2CCN(CCCC)CC2)CC1 [1, E]]")
"Satisfied"
>>> class_label("CCCCN(CCCC)[C@@H]1CCCC[C@H]1OC(=O)OCc1cccnc1 (relative stereo) [4, C]]")
"Not satisfied"
>>> class_label("CCCCN(CCCC)[C@@H]1CCCC[C@H]1OC(=O)OCC1CCCN(C)C1 (stereo partly shown) [5, C]]")
"Not satisfied"
>>> class_label("CCCCN(CCCC)CCCC(C)OC(=O)OC(C)CCCN(CCCC)CCCC (stereo not shown) [10, C]]")
"Satisfied"
>>> class_label("CC(C)N(CCCCOC(=O)OCCCCN(C(C)C)C(C)C)C(C)C [18, D]]")
"Satisfied"
>>> class_label("CCCCN(CCCC)CCC(C)OC(=O)OC(C)CCN(CCCC)CCCC (stereo not shown) [8, D]]")
"Satisfied"

// data source = patent US5827881A
